- Target Or Test System: cGMP-specific 3',5'-cyclic phosphodiesterase (Cavia porcellus)
- Measurement Notes: Inhibition in vitro of Phosphodiesterase 5 isolated from guinea pig lung
Consider the cut-off 10 µM. If the recorded IC50 is strictly smaller, the label is yes (1); if not, the label is no (0).

# example entries with known answers
{"Mol Smiles": "COc1ccc2c(-c3cc(OC)c(OC)c(OC)c3)c(CO)c(CO)cc2c1", "Classification": "yes (1)"}
{"Mol Smiles": "COc1cc2cc(CO)c(CO)cc2cc1OC", "Classification": "no (0)"}
{"Mol Smiles": "COc1cc2cc(CO)c(CO)c(Cc3cc(OC)c(OC)c(OC)c3)c2cc1OC", "Classification": "no (0)"}
{"Mol Smiles": "CCOc1cc2cc(CO)c(CO)c(-c3cc(N)c(OC)c(OC)c3)c2cc1OCC", "Classification": "no (0)"}

Now consider a different molecule.
Item COc1cc2cc(CO)c(CO)c(-c3cc(OC)c(OC)c(OC)c3)c2cc1OC : IC50 beneath 10 µM, strictly? yes (1)
